# Assay Info: Half-lives and pharmacokinetic parameters of polypeptides vs HM-1
# Experimental Setup: in vivo
Peptide text beside a SMILES is read from it. * marks the point of attachment. X24 = O=C1C=CC(=O)N1CCOCCOCCOCCOCCOCCC(=O)*; X44 = O=C1C=CC(=O)N1c1ccc(CCCCCCCC(=O)*)cc1; X60 = O=C1C=CC(=O)N1c1ccccc1CCCCCCCCCC(=O)*; X75 = O=C1C=CC(=O)N1c1cccc(CC(=O)*)c1; X76 = O=C1C=CC(=O)N1CCOCCCCCCCC(=O)*; X8 = O=C1C=CC(=O)N1CCOCCOCCCC(=O)*
Readout Type: MRT inf (h)
Please give a number only; it is taken to be in h.

See these solved cases before continuing.
C[C@H](NC(=O)CNC(=O)[C@H](CCCNC(=N)N)NC(=O)CCCCCCCc1ccc(N2C(=O)C=CC2=O)cc1)C(=O)N[C@@H](CC(=O)O)C(=O)N[C@@H](CCCNC(=N)N)C(=O)N[C@@H](C)C(=O)NCC(=O)NCC(=O)NCC(=O)NCC(=O)N[C@@H](CCCNC(=N)N)C(=O)NCC(=O)N[C@@H](CC(=O)O)C(=O)O [X43] (X44-RGADRAGGGGRGD-OH) :: 47.8
C[C@H](NC(=O)CNC(=O)[C@H](CCCNC(=N)N)NC(=O)CCOCCOCCOCCOCCOCCN1C(=O)C=CC1=O)C(=O)N[C@@H](CC(=O)O)C(=O)N[C@@H](CCCNC(=N)N)C(=O)N[C@@H](C)C(=O)NCC(=O)NCC(=O)NCC(=O)NCC(=O)N[C@@H](CCCNC(=N)N)C(=O)NCC(=O)N[C@@H](CC(=O)O)C(=O)O [X78] (X24-RGADRAGGGGRGD-OH) :: 53.4
C[C@H](NC(=O)CNC(=O)[C@H](CCCNC(=N)N)NC(=O)Cc1cccc(N2C(=O)C=CC2=O)c1)C(=O)N[C@@H](CC(=O)O)C(=O)N[C@@H](CCCNC(=N)N)C(=O)N[C@@H](C)C(=O)NCC(=O)NCC(=O)NCC(=O)NCC(=O)N[C@@H](CCCNC(=N)N)C(=O)NCC(=O)N[C@@H](CC(=O)O)C(=O)O [X25] (X75-RGADRAGGGGRGD-OH) :: 44.1

Requested field: MRT inf. Item: C[C@H](NC(=O)CNC(=O)[C@H](CCCNC(=N)N)NC(=O)CCCCCCCOCCN1C(=O)C=CC1=O)C(=O)N[C@@H](CC(=O)O)C(=O)N[C@@H](CCCNC(=N)N)C(=O)N[C@@H](C)C(=O)NCC(=O)NCC(=O)NCC(=O)NCC(=O)N[C@@H](CCCNC(=N)N)C(=O)NCC(=O)N[C@@H](CC(=O)O)C(=O)O [X55] (X76-RGADRAGGGGRGD-OH)
43.5

Moving on to the next molecule: C[C@H](NC(=O)CNC(=O)[C@H](CCCNC(=N)N)NC(=O)CCCOCCOCCN1C(=O)C=CC1=O)C(=O)N[C@@H](CC(=O)O)C(=O)N[C@@H](CCCNC(=N)N)C(=O)N[C@@H](C)C(=O)NCC(=O)NCC(=O)NCC(=O)NCC(=O)N[C@@H](CCCNC(=N)N)C(=O)NCC(=O)N[C@@H](CC(=O)O)C(=O)O [X58] (X8-RGADRAGGGGRGD-OH)
47.9

What do you have for C[C@H](NC(=O)CNC(=O)[C@H](CCCNC(=N)N)NC(=O)CCCCCCCCCc1ccccc1N1C(=O)C=CC1=O)C(=O)N[C@@H](CC(=O)O)C(=O)N[C@@H](CCCNC(=N)N)C(=O)N[C@@H](C)C(=O)NCC(=O)NCC(=O)NCC(=O)NCC(=O)N[C@@H](CCCNC(=N)N)C(=O)NCC(=O)N[C@@H](CC(=O)O)C(=O)O [X21] (X60-RGADRAGGGGRGD-OH) ?
60.9
